- Test system: Staphylococcus sp.
- protocol text: in vitro antibacterial evaluation, MIC by broth dilution
- Assay type: cell-based
- recorded conditions: broth dilution, 18 hours at 35° C.; strain GC 4543
Below: a set of entries, each annotated with reported MIC Staphylococcus aureus-SMITH (GC 4543).
# value in µg/mL; strip the unit string

Some molecules with recorded MIC Staphylococcus aureus-SMITH (GC 4543):
| molecule | value measured |
| --- | --- |
| CCCCCNC(=O)OCC1OC(OC2C(CO)OC(Oc3ccc(CC4NC(=O)C(C(C)c5ccccc5)NC(=O)CNC(=O)C(CO)NC(=O)C(C(O)C5CNC(=N)N5C5OC(CO)C(O)C(O)C5O)NC(=O)C(C(O)C5CNC(=N)N5)NC4=O)cc3)C(O)C2O)C(O)C(O)C1O (stereo not shown) [Example 251b] | 8 |
| CC(c1ccccc1)C1NC(=O)CNC(=O)C(CO)NC(=O)C(C(O)C2CNC(=N)N2C2OC(CO)C(O)C(O)C2O)NC(=O)C(C(O)C2CNC(=N)N2)NC(=O)C(Cc2ccc(OC3OC(CO)C(OC4OC(CO)C(O)C5OC(CC67CC8CC(CC(C8)C6)C7)OC45)C(O)C3O)cc2)NC1=O (stereo not shown) [Example 128] | 2 |
| COc1ccc2cc(COC3C(CO)OC(OC4C(CO)OC(Oc5ccc(CC6NC(=O)C(C(C)c7ccccc7)NC(=O)CNC(=O)C(CO)NC(=O)C(CC7CNC(=N)N7C7OC(CO)C(O)C(O)C7O)NC(=O)C(CC7CNC(=N)N7)NC6=O)cc5)C(O)C4O)C(O)C3O)ccc2c1 (stereo not shown) [Example 245a] | 2 |

--- query ---
Recorded MIC Staphylococcus aureus-SMITH (GC 4543) for CC(c1ccccc1)C1NC(=O)CNC(=O)C(CO)NC(=O)C(C(O)C2CNC(=N)N2C2OC(CO)C(O)C(O)C2O)NC(=O)C(C(O)C2CNC(=N)N2)NC(=O)C(Cc2ccc(OC3OC(CO)C(OC4OC(COCc5ccc(OCc6ccccc6)cc5)C(O)C(O)C4O)C(O)C3O)cc2)NC1=O (stereo not shown) [Example 231] , please?
2
